# Anti-PSMA Fab signal in the presence of PSMA listing for each entry below
# ASSAYED SYSTEM: T1, Anti-PSMA Fab (SEQ ID NOs: 19, 20)
# T1 construct: Biotinylated and captured on neutravidin coated plates in the phage ELISA; also called 006 PSMA Fab
# RUN DESCRIPTION: phage binding ELISA; PSMA Fab on plate pre-incubated with PSMA antigen as competitor, anti-M13-HRP detection
Please state the value as a number alone, without comment.

Example entries begin here.
# BINDER, DATA VALUE
records = [
    ("SLNWCIPEWMCEGF [Phage-2035]", 0.0793),
    ("IIKWCIPEWMCYMH [Phage-2028]", 0.104),
    ("QMKWCTPEWMCVGM [Phage-2041]", 0.0767),
]

Any idea what its Anti-PSMA Fab signal in the presence of PSMA is? The binder is WPMLCIPEWMCDGL [Phage-2033]
0.0977
